- Test System: human 11betaHSD1 (Homo sapiens)
- Construct: stably transfected with full-length human 11betaHSD1 cDNA
- Sequence (P28845 whole entry): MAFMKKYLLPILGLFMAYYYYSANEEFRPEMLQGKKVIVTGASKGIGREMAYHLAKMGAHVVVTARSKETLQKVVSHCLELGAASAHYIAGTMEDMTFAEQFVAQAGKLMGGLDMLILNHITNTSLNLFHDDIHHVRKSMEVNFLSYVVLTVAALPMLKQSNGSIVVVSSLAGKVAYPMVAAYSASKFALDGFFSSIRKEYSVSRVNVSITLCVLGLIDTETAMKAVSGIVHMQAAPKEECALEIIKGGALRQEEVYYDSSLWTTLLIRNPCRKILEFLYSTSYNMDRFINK
- Test: in vitro inhibition of 11β-HSD1 in H4IIE cells stably transfected with human 11betaHSD1 (cortisone to cortisol, ELISA)
- Condition Context: H4IIE cells stably transfected with full-length human 11betaHSD1 cDNA; 200 nM cortisone, 2 hours at 37° C.; cortisol by competitive ELISA
Measurement Label: IC50 (nM)

// known answers, use as guide
# Molecule, IC50 (nM)
measured = [
    ("CC1CN(c2c(C(=O)NC3C4CC5CC(C4)CC3C5)cnn2-c2ccccc2)CC(C)O1 (stereo not drawn)", 3.7),
    ("O=C(NC1C2CC3CC(C2)CC1C3)c1cnn(-c2ccccc2)c1NCc1ccccc1 (stereo not drawn)", 14),
    ("O=C(NC1C2CC3CC(C2)CC1C3)c1cnn(-c2ccccc2)c1NC1CCC1 (stereo not drawn)", 7.6),
]

(A) O=C(NC1C2CC3CC(C2)CC1C3)c1cnn(-c2ccccc2)c1N1CCCCCC1 (stereo not drawn)
(B) O=C(NC1C2CC3CC(C2)CC1C3)c1cnn(-c2ccccc2)c1NCCO (stereo not drawn)
Return label of the item with the larger IC50. Candidates: A , B . Let me know the label of the one you choose.
B
(B: 21 nM, A: 1 nM)

(a) O=C(NC1C2CC3CC(C2)CC1C3)c1cnn(-c2ccccc2)c1NCc1cccnc1 (stereo not drawn)
(b) O=C(NC1C2CC3CC(C2)CC1C3)c1cnn(-c2ccccc2)c1N1CCCC(CO)C1 (stereo not drawn)
(c) O=C(NC1C2CC3CC(C2)CC1C3)c1cnn(-c2ccccc2)c1NCCCO (stereo not drawn)
Could you please sort these 3 entries by IC50 from high to low? Record the ranking as a list of labels in the requested order.
a, c, b

(1) CN(CCO)c1c(C(=O)NC2C3CC4CC(C3)CC2C4)cnn1-c1ccccc1 (stereo not drawn)
(2) O=C(NC1C2CC3CC(C2)CC1C3)c1cnn(-c2ccccc2)c1N1CCC(O)CC1 (stereo not drawn)
(3) O=C(NC1C2CC3CC(C2)CC1C3)c1cnn(-c2ccccc2)c1NCC1CC1 (stereo not drawn)
Could you please sort these 3 entries by IC50 from high to low? Record the ranking as a list of labels in the requested order.
1, 2, 3

(I) O=C(NC1C2CC3CC(C2)CC1C3)c1cnn(-c2ccccc2)c1NCCCCO (stereo not drawn)
(II) CN(CCc1ccccc1)c1c(C(=O)NC2C3CC4CC(C3)CC2C4)cnn1-c1ccccc1 (stereo not drawn)
(III) COCCCNc1c(C(=O)NC2C3CC4CC(C3)CC2C4)cnn1-c1ccccc1 (stereo not drawn)
Ascending by IC50, please. Record the ranking as a list of labels in the requested order.
III, II, I
(III: 1.4 nM, II: 3.7 nM, I: 7.5 nM)

(A) CC1CCC(C)N1c1c(C(=O)NC2C3CC4CC(C3)CC2C4)cnn1-c1ccccc1 (stereo not drawn)
(B) O=C(NC1C2CC3CC(C2)CC1C3)c1cnn(-c2ccccc2)c1N1CCCC(O)C1 (stereo not drawn)
(C) O=C(NC1C2CC3CC(C2)CC1C3)c1cnn(-c2ccccc2)c1NCC1CCCO1 (stereo not drawn)
Could you please sort these 3 entries by IC50 from high to low? Record the ranking as a list of labels in the requested order.
B, A, C

(I) O=C(NC1C2CC3CC(C2)CC1C3)c1cnn(-c2ccccc2)c1N1CCOCC1 (stereo not drawn)
(II) O=C(NC1C2CC3CC(C2)CC1C3)c1cnn(-c2ccccc2)c1N1CCC[C@H]1CO (stereo partly drawn)
(III) O=C(NC1C2CC3CC(C2)CC1C3)c1cnn(-c2ccccc2)c1NC1CCCCC1 (stereo not drawn)
(IV) CN(Cc1ccccc1)c1c(C(=O)NC2C3CC4CC(C3)CC2C4)cnn1-c1ccccc1 (stereo not drawn)
(V) O=C(NC1C2CC3CC(C2)CC1C3)c1cnn(-c2ccccc2)c1N1CCC(O)C1 (stereo not drawn)
Could you please sort these 5 entries by IC50 from high to low? Record the ranking as a list of labels in the requested order.
II, V, IV, III, I
(II: 42 nM, V: 13 nM, IV: 9.1 nM, III: 4.7 nM, I: 3 nM)

(P) CC1CCCN(c2c(C(=O)NC3C4CC5CC(C4)CC3C5)cnn2-c2ccccc2)C1 (stereo not drawn)
(Q) CC(C)Nc1c(C(=O)NC2C3CC4CC(C3)CC2C4)cnn1-c1ccccc1 (stereo not drawn)
Input pair: P , Q . Output: entry with lower IC50. Let me know the label of the one you choose.
Q

(I) CC(O)CNc1c(C(=O)NC2C3CC4CC(C3)CC2C4)cnn1-c1ccccc1 (stereo not drawn)
(II) O=C(NC1C2CC3CC(C2)CC1C3)c1cnn(-c2ccccc2)c1N1CCCC1 (stereo not drawn)
Input pair: I , II . Output: entry with lower IC50. Let me know the label of the one you choose.
II
